Reference source for all entries: the Immune Epitope Database (IEDB)

- Target or system: HLA-B*46:01
- Method description: IEDB peptide-MHC binding, purified MHC/direct/fluorescence; filed as Kd, often an IC50 or EC50 that approximates it; bounds were set here for any values at or beyond the usual limits of such assays
- Condition details: source organism: Coxiella burnetii
Measure: Kd

residues=VFFKQWFEK target_or_system=HLA-B*46:01 result="≥ 20 µM"

###

- Target or system: HLA-A*69:01
- Method description: IEDB peptide-MHC binding, purified MHC/competitive/fluorescence; filed as Kd, often an IC50 or EC50 that approximates it; bounds were set here for any values at or beyond the usual limits of such assays
- Condition details: source organism: Orthohantavirus tulaense
Measure: Kd

residues=ILMARYMSK result="≥ 20 µM"
